Catalogue of Population Fragmented Nuclei (%) readings, one per entry.
# System: U2OS
# experiment: Multiplex assay against U2OS
# Type: toxicity, cell-based
# measurement.setup: human, 24 h, 10 µM, compound concentration 10 uM, replicate 1
# number only, unit % dropped from output

Use the examples below as a reference point.
Cl.Cl.NC1(c2ccc(-c3nc4ccn5c(=O)[nH]nc5c4cc3-c3ccccc3)cc2)CCC1
8
CCCn1c(=O)c2[nH]c(C34CC5CC(CC3C5)C4)nc2n(CCC)c1=O
13
O=C(O)c1ccc2cc(-c3ccc(O)c(C45CC6CC(CC(C6)C4)C5)c3)ccc2c1
15

I have this compound here, COc1cc2c(Nc3ccc(NC(=O)c4ccccc4)cc3)ncnc2cc1OCCCN1CCOCC1 , and I need its recorded Population Fragmented Nuclei (%).
7

* * *

# Tested on: U2OS
# experiment: Multiplex assay against U2OS
# Assay type: toxicity, cell-based
# measurement.setup: human, 12 h, 1 µM, compound concentration 1 uM, replicate 1
In plain terms, low Population Fragmented Nuclei (%), meaning strictly below 8%, gives y, and everything else gives n.

CCn1c(-c2nonc2N)nc2cnc(Oc3cccc(NC(=O)c4ccc(OCCN5CCOCC5)cc4)c3)cc21 [GSK-269962A]
n
CN(C)C/C=C/C(=O)Nc1cc2c(Nc3ccc(F)c(Cl)c3)ncnc2cc1O[C@H]1CCOC1.O=C(O)/C=C\C(=O)O.O=C(O)/C=C\C(=O)O [AFATINIB DIMALEATE]
y
COc1cc2c(NC3CCN(C(C)C)CC3)nc(N3CCC(F)(F)CC3)nc2cc1OCCCN1CCCC1
n
Nc1nc2c(c(N3CCNCC3)n1)CCC1=C2[C@@H]2CCCC[C@@H]2O1
n
FC(F)c1nc2ccccc2n1-c1nc(N2CCOCC2)nc(N2CCOCC2)n1
y
CCc1cc2c(cc1CC)CC(NC[C@H](O)c1ccc(O)c3[nH]c(=O)ccc13)C2
n

Criterion: Population Fragmented Nuclei (%) strictly below 8%. Is it met by CNC(=O)c1nn(C)c2c1C(C)(C)Cc1cnc(Nc3ccc(N4CCN(C)CC4)cc3)nc1-2 ?
n

* * *

# System: Fibroblast
# experiment: Multiplex assay against human fibroblast
# Format: toxicity, cell-based
# measurement.setup: 24 h, 10 µM, compound concentration 10 uM, replicate 2
In plain terms, low Population Fragmented Nuclei (%), meaning strictly below 50%, gives yes (1), and everything else gives no (0).

COc1ccc(NS(=O)(=O)c2sc3ccc(Cl)cc3c2C)cc1N1CCNCC1.Cl
yes (1)
CCOc1cc(N2CCC(O)CC2)ccc1Nc1ncc2c(n1)N(C1CCCC1)CCC(=O)N2C
yes (1)
Cl.Cl.NC1(c2ccc(-c3nc4ccn5c(=O)[nH]nc5c4cc3-c3ccccc3)cc2)CCC1
no (0)
COc1cc2c(Nc3ccc(NC(=O)c4ccccc4)cc3)ncnc2cc1OCCCN1CCOCC1
no (0)

Criterion: Population Fragmented Nuclei (%) strictly below 50%. Is it met by CNC(=O)c1cc(Oc2ccc(NC(=O)Nc3cc(C(C)(C)C)nn3-c3ccc4ncccc4c3)c(F)c2)ccn1 ?
no (0)

Quick one: CCc1cc2c(cc1CC)CC(NC[C@H](O)c1ccc(O)c3[nH]c(=O)ccc13)C2
yes (1)

* * *

# Tested on: U2OS
# experiment: Multiplex assay against U2OS
# Type: toxicity, cell-based
# measurement.setup: human, 24 h, 10 µM, compound concentration 10 uM, replicate 1
value.type: Population Normal (%)

Cc1cn(-c2cc(NC(=O)c3ccc4c(c3)CN(c3cncnc3)C[C@@H]4C)cc(C(F)(F)F)c2)cn1
95%
O=C(O)c1ccc2cc(-c3ccc(O)c(C45CC6CC(CC(C6)C4)C5)c3)ccc2c1
94%
CNc1oc(-c2cccc3ccccc23)nc1C#N
56%

I have this molecule here, Nc1nc2c(c(N3CCNCC3)n1)CCC1=C2[C@@H]2CCCC[C@@H]2O1 , and I need its recorded Population Normal (%).
85%

Quick one: c1ccc2oc(-c3csc(C4CCN(Cc5nc6ncccc6[nH]5)CC4)n3)cc2c1
98%

Quick one: COc1cc2c(NC3CCN(C(C)C)CC3)nc(N3CCC(F)(F)CC3)nc2cc1OCCCN1CCCC1
93%

Quick one: COc1cc2c(Nc3ccc(NC(=O)c4ccccc4)cc3)ncnc2cc1OCCCN1CCOCC1
91%

* * *

# System: U2OS
# experiment: Incucyte cell viability with U2OS; also: filed as whole numbers so only -1 and 0 and 1 occur
# Type: toxicity, cell-based
# measurement.setup: human, 18 h, 10 µM, compound concentration 10 uM, replicate number 1, timepoint 18 hours
Catalogue of Growth Rate readings, one per entry.
Answer field: number only, no words.

Use the examples below as a reference point.
CN(C)C/C=C/C(=O)Nc1cc2c(Nc3ccc(F)c(Cl)c3)ncnc2cc1O[C@H]1CCOC1.O=C(O)/C=C\C(=O)O.O=C(O)/C=C\C(=O)O [AFATINIB DIMALEATE]
0
CN1C(=O)[C@@H](N2CCc3c(nn(Cc4ccccc4)c3Br)C2=O)COc2ccccc21 [TP-030-2]
0
O=C(c1ccc(F)c(F)c1Nc1ccc(I)cc1F)N1CC(O)([C@@H]2CCCCN2)C1 [COBIMETINIB]
0
COc1ccc(/C=C/CCCCOc2ccc(C(=O)c3cccc(C(=O)O)c3)cc2CCC(=O)O)cc1
1
COc1ccc(NS(=O)(=O)c2sc3ccc(Cl)cc3c2C)cc1N1CCNCC1.Cl
0
FC(F)(F)c1c(N2CCC(c3ccccc3)CC2)ccn2c(CC3CC3)nnc12
0
C[C@H](CO)Nc1nc(SCc2cccc(Cl)c2F)nc2[nH]c(=O)sc12
0
CCc1cc2c(c(CC)n1)CCC(=O)N2Cc1ccc(-c2ccccc2-c2nnn[nH]2)cc1.Cl
0

Test system U2OS; read-out Growth Rate; what value for N#CC1(c2ccccn2)CCN(Cc2cc(C(=O)N3CCCC3)c(=O)n3ccccc23)CC1 [MSD-M1PAM-NC] ?
0

Quick one: Clc1cc2c(NC3CCCC3)nnc(-c3ccncc3)c2cc1Cl
0

* * *

# Test system: Fibroblast
# experiment: Multiplex assay against human fibroblast
# Type: toxicity, cell-based
# measurement.setup: 24 h, 10 µM, compound concentration 10 uM, replicate 1
value.type: Population Apoptotic (%)
# number only, unit % dropped from output

Use the examples below as a reference point.
Cc1nc(Cc2cccc(C(F)(F)F)c2)sc1-c1ccc(C(N)=O)nc1 [TP-024n]
64
Cc1cc2c(cc1N1C(=O)c3cccc4c(CCCO)ccc(c34)C1=O)n(C)c(=O)n2C
58
COc1cc2c(Nc3ccc(NC(=O)c4ccccc4)cc3)ncnc2cc1OCCCN1CCOCC1
76
Nc1ccc(C(=O)Nc2cccc(-c3nc(N4CCOCC4)c4oc5ncccc5c4n3)c2)cn1
68
CC(C)(C)c1cnc(CSc2cnc(NC(=O)C3CCNCC3)s2)o1
65

I have this compound here, CN(C)CCOc1ccc(-c2nc(-c3ccncc3)c(-c3ccc4c(c3)CC/C4=N\O)[nH]2)cc1 , and I need its recorded Population Apoptotic (%).
67

Quick one: N#Cc1cnc(Nc2cc(NC[C@H]3CNCCO3)c(C(F)(F)F)cn2)cn1
71

Quick one: c1ccc2oc(-c3csc(C4CCN(Cc5nc6ncccc6[nH]5)CC4)n3)cc2c1
90

Quick one: CCC(=O)O[C@]1(C(=O)SCF)[C@H](C)C[C@H]2[C@@H]3C[C@H](F)C4=CC(=O)C=C[C@]4(C)[C@@]3(F)[C@@H](O)C[C@@]21C [FLUTICASONE PROPIONATE]
64

* * *

# System: HEK-293T
# experiment: Multiplex assay against HEK293T
# Assay type: toxicity, cell-based
# measurement.setup: human, 24 h, 10 µM, compound concentration 10 uM, replicate 1
value.type: Population Healthy Nuclei (%)
# number only, unit % dropped from output

Use the examples below as a reference point.
CNC(=O)c1cc(Oc2ccc(NC(=O)Nc3cc(C(C)(C)C)nn3-c3ccc4ncccc4c3)c(F)c2)ccn1 [REBASTINIB]
44
CN(C)CCOc1ccc(-c2nc(-c3ccncc3)c(-c3ccc4c(c3)CC/C4=N\O)[nH]2)cc1 [SB590885]
85
CCc1cc2c(cc1CC)CC(NC[C@H](O)c1ccc(O)c3[nH]c(=O)ccc13)C2 [INDACATEROL]
11
Cl.Cl.NC1(c2ccc(-c3nc4ccn5c(=O)[nH]nc5c4cc3-c3ccccc3)cc2)CCC1
21
Cc1cn(-c2cc(NC(=O)c3ccc4c(c3)CN(c3cncnc3)C[C@@H]4C)cc(C(F)(F)F)c2)cn1
73

I have this compound here, Cc1nc(Cc2cccc(C(F)(F)F)c2)sc1-c1ccc(C(N)=O)nc1 [TP-024n] , and I need its recorded Population Healthy Nuclei (%).
31

Quick one: CCOc1cc2ncc(C#N)c(Nc3ccc(OCc4cccc(F)c4)c(Cl)c3)c2cc1NC(=O)/C=C/CN(C)C [HKI-357]
59

Quick one: COc1ccc(NS(=O)(=O)c2sc3ccc(Cl)cc3c2C)cc1N1CCNCC1.Cl
34

Quick one: CCCn1c(=O)c2[nH]c(C34CC5CC(CC3C5)C4)nc2n(CCC)c1=O [ROLOFYLLINE]
31

Quick one: CC(C)N1CCC(C)(C)c2cc(C#Cc3ccc(C(=O)O)cc3)ccc21
40
